Where do the numbers come from? From patent US11608343B2.

# Test system: EGFR WT dependent A431 cells
# method: Tumor cell line proliferation assay, EGFR WT dependent A431 cells, CellTiter-Glo
# Format: cell-based
# conditions_used: Homo sapiens, A-431, 72 h, read-out: GI50 A431 EGFR wt amp.
quantity_name: GI50

Would you please give the reported GI50 of C=CC(=O)NC1CCN(c2ncc3ncnc(Nc4ccc(Oc5ccc6c(c5)ncn6C)c(OC)c4)c3n2)CC1 [Example I-03] with EGFR WT dependent A431 cells?
> 5 µM

Recall the reported GI50 of C#Cc1cc(Nc2ncnc3cnc(N4CCC(NC(=O)C=C)CC4)nc23)ccc1Oc1ccc2c(c1)ncn2C [Example I-02] on EGFR WT dependent A431 cells and write it down.
> 5 µM

Give EGFR WT dependent A431 cells GI50 for the following molecule: C=CC(=O)N1CC[C@@H](Nc2ncc3ncnc(Nc4ccc(Oc5ccn6ncnc6c5)c(C)c4)c3n2)C1 [Example I-18]
> 2 µM

Name the recorded GI50 of C=CC(=O)NC1CN(c2ncc3ncnc(Nc4ccc(Oc5ccn6ncnc6c5)c(C)c4)c3n2)C1 [Example I-09] , assay system EGFR WT dependent A431 cells.
> 5 µM

Look up and report GI50, with EGFR WT dependent A431 cells as system, for C=CC(=O)N1CCC(Nc2ncc3ncnc(Nc4ccc(Oc5ccc6c(c5)ncn6C)c(C)c4)c3n2)CC1 [Example I-14]
> 2 µM

# assay system EGFR WT dependent A431 cells: give GI50 of C=CC(=O)NC1CCN(c2ncc3ncnc(Nc4ccc(Oc5ccn6ccnc6c5)c(C)c4)c3n2)CC1 [Example I-12]
> 5 µM

State GI50 on EGFR WT dependent A431 cells. Entry: C=CC(=O)NC1CCN(c2ncc3ncnc(Nc4ccc(Oc5ccc6c(c5)ncn6C)c(Cl)c4)c3n2)CC1 [Example I-05]
> 5 µM

Identify measured GI50 obtained with EGFR WT dependent A431 cells for C=CC(=O)NC1CN(c2ncc3ncnc(Nc4ccc(Oc5ccc6c(c5)ncn6C)c(C)c4)c3n2)C1 [Example I-07] .
> 5 µM

Give GI50; test system EGFR WT dependent A431 cells; molecule C=CC(=O)NC1CCN(c2ncc3ncnc(Nc4ccc(Oc5ccc6c(c5)ncn6C)c(C)c4)c3n2)CC1 [Example I-01]
> 5 µM

Enter GI50 (test system EGFR WT dependent A431 cells) for C=CC(=O)Nc1ccc2ncnc(Nc3ccc(Oc4ccc5c(c4)ncn5C)c(C)c3)c2c1 [WO 2007/059257 Ex. 185, reference compound]
> 5 µM

Enter measured GI50, system EGFR WT dependent A431 cells, for the molecule shown: C=CC(=O)NC1(C)CCN(c2ncc3ncnc(Nc4ccc(Oc5ccc6c(c5)ncn6C)c(OC)c4)c3n2)CC1 [Example I-04]
> 5 µM

Report the value of GI50 obtained on EGFR WT dependent A431 cells for C=CC(=O)NC1CCN(c2ncc3ncnc(Nc4ccc(Oc5ccn6ncnc6c5)c(C)c4)c3n2)CC1 [Example I-11] .
1.25 µM

Give measured GI50 for C=CC(=O)NC1CCN(c2ncc3ncnc(Nc4cc(F)c(Oc5ccn6ncnc6c5)c(Cl)c4)c3n2)CC1 [Example I-06] (EGFR WT dependent A431 cells).
> 5 µM

GET GI50 | system: EGFR WT dependent A431 cells | item: C=CC(=O)NC1CN(c2ncc3ncnc(Nc4ccc(Oc5cnc6c(c5)ncn6C)c(C)c4)c3n2)C1 [Example I-13]
> 5 µM

Report its GI50 with EGFR WT dependent A431 cells as the test system: C=CC(=O)N1CC[C@H](Nc2ncc3ncnc(Nc4ccc(Oc5ccn6ncnc6c5)c(C)c4)c3n2)C1 [Example I-17]
> 2 µM
